For each of the compounds below, state its max response.
Test system: HaCat
Assay Overview: Cytotoxic Profiling of Annotated Libraries Using Quantitative High-Throughput Screening (AID 1296008); also: % is scaled to controls: 0 for no effect and ±100 for the full control effect; nearly all actives have a fitted effect of over 60% in size
Condition Summary: Five cell lines viability, CellTiter-Glo ATP luminescence, 48-72 h; hits give low values
Records with an inconclusive call do not appear.
Give bare numbers, in %.

Examples with their reported max response follow.
O=c1[nH]c(=O)n([C@H]2C[C@@H](O)[C@@H](CO)O2)cc1I | 1.35
OCCn1cc(-c2ccc3c(c2)CCC3=NO)c(-c2ccncc2)n1 | 1.64
O=C(O)C1=CO[C@@H](O[C@@H]2O[C@H](CO)[C@H](O)[C@H](O)[C@H]2O)[C@@H]2C(CO)=CC[C@H]12 | -0.469

Lab note: each compound below needs its max response filled in.
1. O=C1C(CCC(O)c2ccc(F)cc2)C(c2ccc(O)cc2)N1c1ccc(F)cc1 (centres undefined)
2. CO[C@H]1O[C@@H]2O[C@@]3(C)CC[C@@H]4[C@@H](C)CC[C@@H]([C@H]1C)[C@@]24OO3
3. COc1ccc2c(c1)CC[C@H]1[C@@H]2CC[C@]2(C)[C@@H](NCCCCCCN3C(=O)C=CC3=O)CC[C@H]12

Solution:
1: 3.02; 2: -9.33; 3: 1.55

Lab note: each compound below needs its max response filled in.
1. O=C1NC(=O)C(=Cc2ccc(-c3ccc(F)cc3O)o2)S1
2. Cc1ccc(NC(=O)c2ccc(CN3CCN(C)CC3)cc2)cc1Nc1nc(-c2cccnc2)cs1

Solution:
[-35.3, -8.86]

====

System: CRL-7250
Assay Overview: Cytotoxic Profiling of Annotated Libraries Using Quantitative High-Throughput Screening (AID 1296008); also: % is scaled to controls: 0 for no effect and ±100 for the full control effect; nearly all actives have a fitted effect of over 60% in size
Condition Summary: Five cell lines viability, CellTiter-Glo ATP luminescence, 48-72 h; hits give low values
Records with an inconclusive call do not appear.
For each of the compounds below, state its max response.
One number for each entry, in %.

Lab note: each compound below needs its max response filled in.
1. c1ccc(CNc2nc(N3CCOc4ccccc43)nc3c2CCCC3)cc1
2. OC[C@H]1O[C@@H](Oc2ccc(O)cc2)[C@H](O)[C@@H](O)[C@H]1O
3. CNC(=O)[C@H](CC1=CN=C2C=CCC=C12)NC(=O)[C@@H](CC(=O)NO)CC(C)C
4. CCCCCOC(=O)Nc1nc(=O)n([C@@H]2O[C@H](C)[C@@H](O)C2O)cc1F (stereo not given in full)
5. CCC(=C(CC)c1ccc(O)cc1)c1ccc(O)cc1
6. CN1CC(=O)NC1=NC(=O)Nc1cccc(Cl)c1
7. CC(C)C[C@@H](N)[C@H](O)C(=O)N[C@H](C(=O)N[C@H](C(=O)N[C@@H](CC(=O)O)C(=O)O)C(C)C)C(C)C
8. CCC(=O)NCC[C@@H]1CCc2ccc3c(c21)CCO3

Solution:
[3.99, -2.9, -4.69, 0.279, 2.3, -9.31, 3.99, -4.42]

Lab note: each compound below needs its max response filled in.
1. C=C1c2cccc(O)c2C(O)=C2C(=O)[C@@]3(O)C(O)=C(C(N)=O)C(=O)[C@@H](N(C)C)[C@@H]3[C@@H](O)[C@H]12
2. O=C(O)c1nc(=O)[nH]c(=O)[nH]1

Solution:
-8.75
1.07

====

Assay Overview: Quantitative High-Throughput drug screen in 47 multiple myeloma cell lines against the NCATS MIPE library collection: KMS28PE_JCRB cell viability assay (AID 1918983); also: nearly all actives have a fitted effect of over 35% in size
Condition Summary: KMS28PE multiple myeloma viability, CellTiter-Glo ATP, 48 h; series mostly up to 45.8 µM
Results filed as inconclusive are left out. Active and inactive are the calls of the source. Calls follow the shape of the dose curve; as a rule, active = well fitted cell-killing curve with a large enough effect; inconclusive = small, poorly fitted or top-dose-only effect, or effect the other way; inactive = no such curve, though single readings can be large or run the other way.
Choose the fitting class; nothing outside y for active, n for inactive is accepted.

Exercise: Could you check what this test reported for NC1(C(=O)N[C@@H](CCO)c2ccc(Cl)cc2)CCN(c2ncnc3[nH]ccc23)CC1 ?
Solution: y

Exercise: Next record, please: CCN(CCO)CCCOc1ccc2c(Nc3cc(CC(=O)Nc4cccc(F)c4)[nH]n3)ncnc2c1
Solution: n

Exercise: Next record, please: CN[C@@H](C)[C@H]1[C@H](O)C[C@@]2(C)[C@@H]3CC[C@H]4C(C)(C)[C@@H](NC)CC[C@@]45C[C@@]35CC[C@]12C
Solution: n

Exercise: Next record, please: Cc1ccc(C2=Nc3ccc(Cl)cc3OC2)cc1
Solution: n

Exercise: Next record, please: Cc1nn(Cc2ccccc2Cl)c(C)c1CN(C)CC(O)COc1ccc(Cl)cc1 (configuration not stated)
Solution: y

Exercise: Next record, please: CC=C1C2C=C(C)CC1(N)c1ccc(=O)[nH]c1C2 (configuration not stated)
Solution: n

====

Assay Overview: Quantitative High-Throughput drug screen in 47 multiple myeloma cell lines against the NCATS MIPE library collection: Delta47_JCRB cell viability assay (AID 1918925; also: nearly all actives have a fitted effect of over 45% in size)
Condition Summary: Delta47 myeloma viability, CellTiter-Glo ATP, 48 h; series mostly up to 45.8 µM
Results filed as inconclusive are left out. Activity calls are given as the source filed them. Calls follow the shape of the dose curve; as a rule, active = well fitted cell-killing curve with a large enough effect; inconclusive = small, poorly fitted or top-dose-only effect, or effect the other way; inactive = no such curve, though single readings can be large or run the other way.
Choose the fitting class; nothing outside Y for active, N for inactive is accepted.

CC(C)CN(C[C@@H](O)[C@H](Cc1ccccc1)NC(=O)O[C@H]1CO[C@H]2OCC[C@H]21)S(=O)(=O)c1ccc(N)cc1 | Y
CCCCCCOC(=O)N=C(N)c1ccc(NCc2nc3cc(C(=O)N(CCC(=O)OCC)c4ccccn4)ccc3n2C)cc1 | Y
CC(C)C[C@H](NC(=O)c1cc2ccccc2s1)C(=O)N1CCN(C(=O)[C@H](CO)NS(=O)(=O)c2ccc(Cl)cc2Cl)CC1 | Y
O=c1[nH]nc(OCCCc2ccc(Cl)cc2)c(NCc2cccnc2)c1Br | Y
O=c1[nH]c(=O)n([C@H]2C[C@@H](O)[C@@H](CO)O2)cc1I | N

Exercise: Could you check what this test reported for C[C@H]1COC2=C1C(=O)C(=O)c1c2ccc2c1CCCC2(C)C ?
Solution: Y

Exercise: Next record, please: NS(=O)(=O)c1ccc(Nc2nc(OCC3CCCCC3)c3[nH]cnc3n2)cc1
Solution: Y

Exercise: Next record, please: COc1ccc2c(c1)CC[C@H]1[C@@H]2CC[C@]2(C)[C@@H](NCCCCCCN3C(=O)C=CC3=O)CC[C@H]12
Solution: N

====

Test system: Zika virus NS2B-NS3 protease (linked construct)
Assay Overview: Primary screen NINDS Rhodamine qHTS for Zika virus inhibitors (AID 1347160); also: nearly all actives have a fitted effect of over 55% in size
Condition Summary: purified NS2B-NS3 protease, Rhodamine110 substrate fluorescence; series mostly up to 57.1 µM
Inconclusive results are not listed. The source made the active and inactive calls. The call rests on the fitted dose curve; in most records, active means well fitted inhibition curve with a large enough effect; inconclusive means small, poorly fitted or top-dose-only effect; inactive means no such curve, though single readings can be large or run the other way.
Choose the fitting class; nothing outside y (active), n (inactive) is accepted.

Completed entries (count: 10):
O=C(CC12CC3CC(CC(C3)C1)C2)Nc1cccc2nc(NCCNCCO)ccc12 | n
Nc1[nH]nc2nnc(-c3c(-c4ccccc4)nn4ccccc34)cc12 | n
Cc1nc(C(=O)NCC(=O)O)c(O)c2ccc(Oc3ccccc3)cc12 | n
CN1C(=O)C(Cc2c[nH]c3ccccc23)NC1=S (centres undefined) | n
COC(=O)N1CCN(Cc2cccc(NC(=O)Nc3ccc(C)nc3)c2F)CC1 | n
C[C@H](c1ccc(F)cc1CCCC(=O)O)N(c1cc(F)ccc1F)S(=O)(=O)c1ccc(Cl)cc1 | y
CN(C)CCCNC(=O)c1ccc(-c2cc(O)c3ncccc3c2)cc1 | n
C[C@@H](NC(=O)c1ncnc(N)c1Cl)c1ncc(C(=O)Nc2cc(C(F)(F)F)c(Cl)cn2)s1 | n
Cc1cnc(-c2cc(N3CCN(C(=O)CCS(C)(=O)=O)CC3)ncc2Cl)c(C)c1 | n
COc1ccc(CCC(=O)Nc2nc3ccc(Cl)cc3s2)cc1OC | n

Exercise: Could you check what this test reported for C[C@@]1(C(=O)Nc2ccc(F)nc2)CCCN1c1nc(Nc2cc(C3CC3)[nH]n2)c2cccn2n1 ?
Solution: n

====

Assay Overview: Quantitative High-Throughput drug screen in 47 multiple myeloma cell lines against the NCATS MIPE library collection: OPM1_PLB cell viability assay (AID 1918989); also: nearly all actives have a fitted effect of over 40% in size
Condition Summary: CellTiter-Glo, 48 h; series mostly up to 45.8 µM
Records with an inconclusive call do not appear. Active and inactive are the calls of the source. Calls come from the whole dose curve; as a rule, active = well fitted cell-killing curve with a large enough effect; inconclusive = small, poorly fitted or top-dose-only effect, or effect the other way; inactive = no such curve, though single readings can be large or run the other way.
Choose the fitting class; nothing outside yes for active, no for inactive is accepted.

Completed entries (count: 2):
O=C1C(CCC(O)c2ccc(F)cc2)C(c2ccc(O)cc2)N1c1ccc(F)cc1 (stereo not drawn) | no
COc1cc2ncn(-c3cc(OCc4ccccc4S(C)(=O)=O)c(C#N)s3)c2cc1OC | no

Exercise: Could you check what this test reported for CC[C@H](CC#N)OC(=O)N[C@@H](C)c1cccc(NC(=O)Nc2ccc(-c3cnco3)c(OC)c2)c1 ?
Solution: yes

Exercise: Next record, please: C[C@@H]1C[C@H]2[C@@H]3CCC4=CC(=O)C=C[C@]4(C)[C@@]3(F)[C@@H](O)C[C@]2(C)[C@@]1(O)C(=O)CO
Solution: no

Exercise: Next record, please: CCC(=C(c1ccc(O)cc1)c1ccc(OCCNC)cc1)c1ccccc1
Solution: yes

Exercise: Next record, please: CNc1nc(Nc2ccc(C(=O)N3CCOCC3)cc2OC)ncc1Cl
Solution: no

Exercise: Next record, please: C[C@@]1(C(=O)Nc2ccc(F)nc2)CCCN1c1nc(Nc2cc(C3CC3)[nH]n2)c2cccn2n1
Solution: yes

Exercise: Next record, please: CCOC(=O)N1CCN([N+]([O-])=NOc2cc(ON=[N+]([O-])N3CCN(C(=O)OCC)CC3)c([N+](=O)[O-])cc2[N+](=O)[O-])CC1
Solution: yes
